PROTOCOL: Pharmacokinetic parameters following intravenous and oral administration in dogs
Format: in vivo, female beagles
CONDITION_NOTES: female, beagle, dog, plasma, intravenous administration (i.v.), read-out: t½ (converted)
Counter-ions that a name gives are not always drawn.
Measured half-life accompanies every entry in the list below.

COMPOUND	half-life / h
CC(C)CN1CCN(c2ccc(-c3ccc(Cl)cc3N3CCCC(n4ncc(C(=O)O)c4C(F)(F)F)C3)cc2)CC1 (single isomer, unassigned) [Example 9, hydrochloride]	7.86
CC(C)CN1CCN(c2ccc(-c3ccc(Cl)cc3N3CCC[C@@H](n4ncc(C(=O)O)c4C(F)F)C3)cc2)CC1 (single isomer, unassigned) [Example 2]	17.7
O=C(O)c1cnn(-c2cccc(-c3cc(Cl)ccc3-c3ccc(N4CCN(CC5CC5)CC4)cc3)n2)c1C(F)(F)F [Comparative Example 174 (WO2012/058132), reference compound]	10.8

###

PROTOCOL: Pharmacokinetic parameters following intravenous and oral administration in rats
Type: in vivo, male Wistar rats
CONDITION_NOTES: oral administration (p.o.)
Where a name gives a salt, the structure may show the parent alone.
Label yes when AUCnorm is strictly below 4 kg·h/L; otherwise label no.

COMPOUND	CLASS_LABEL
CC(C)CN1CCN(c2ccc(-c3ccc(Cl)cc3N3CCC[C@@H](n4ncc(C(=O)O)c4C(F)F)C3)cc2)CC1 (single isomer, unassigned) [Example 2]	yes
CC(C)CN1CCN(c2ccc(-c3ccc(Cl)cc3N3CCCC(n4ncc(C(=O)O)c4C(F)F)C3)cc2)CC1 (single isomer, unassigned) [Example 1, hydrochloride]	yes
O=C(O)c1cnn(C2CCCN(c3cc(Cl)ccc3-c3ccc(N4CCN(CC5CC5)CC4)cc3)C2)c1C(F)(F)F (single isomer, unassigned) [Example 10, hydrochloride]	yes
O=C(O)c1cnn(C2CCCN(c3cc(Cl)ccc3-c3ccc(N4CCN(CC5CC5)CC4)cc3)C2)c1C(F)F (single isomer, unassigned) [Example 5, hydrochloride]	yes
CC(C)CN1CCN(c2ccc(-c3ccc(Cl)cc3N3CCCC(n4ncc(C(=O)O)c4C(F)(F)F)C3)cc2)CC1 (single isomer, unassigned) [Example 9, hydrochloride]	no

###

TARGET_OF_ASSAY: recombinant guanylate cyclase reporter cell line (Rattus norvegicus)
Construct: CHO by own knowledge of the cited Wunder et al. 2005
Sequence (P20595 whole entry): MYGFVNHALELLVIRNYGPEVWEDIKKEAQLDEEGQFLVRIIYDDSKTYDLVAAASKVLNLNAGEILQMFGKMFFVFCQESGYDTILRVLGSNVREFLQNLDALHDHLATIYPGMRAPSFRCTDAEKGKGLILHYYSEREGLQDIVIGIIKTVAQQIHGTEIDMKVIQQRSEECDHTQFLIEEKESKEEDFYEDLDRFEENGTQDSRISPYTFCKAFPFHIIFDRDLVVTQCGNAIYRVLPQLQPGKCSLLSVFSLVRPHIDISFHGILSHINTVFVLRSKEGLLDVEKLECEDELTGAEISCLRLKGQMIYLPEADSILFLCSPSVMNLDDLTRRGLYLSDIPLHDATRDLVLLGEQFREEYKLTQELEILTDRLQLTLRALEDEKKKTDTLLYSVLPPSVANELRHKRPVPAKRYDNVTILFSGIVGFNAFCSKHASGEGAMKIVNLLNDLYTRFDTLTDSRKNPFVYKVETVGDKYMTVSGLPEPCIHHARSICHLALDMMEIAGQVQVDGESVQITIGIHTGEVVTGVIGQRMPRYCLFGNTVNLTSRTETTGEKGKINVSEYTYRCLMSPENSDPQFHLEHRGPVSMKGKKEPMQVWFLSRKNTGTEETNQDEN
Sequence (P19686 whole entry partner): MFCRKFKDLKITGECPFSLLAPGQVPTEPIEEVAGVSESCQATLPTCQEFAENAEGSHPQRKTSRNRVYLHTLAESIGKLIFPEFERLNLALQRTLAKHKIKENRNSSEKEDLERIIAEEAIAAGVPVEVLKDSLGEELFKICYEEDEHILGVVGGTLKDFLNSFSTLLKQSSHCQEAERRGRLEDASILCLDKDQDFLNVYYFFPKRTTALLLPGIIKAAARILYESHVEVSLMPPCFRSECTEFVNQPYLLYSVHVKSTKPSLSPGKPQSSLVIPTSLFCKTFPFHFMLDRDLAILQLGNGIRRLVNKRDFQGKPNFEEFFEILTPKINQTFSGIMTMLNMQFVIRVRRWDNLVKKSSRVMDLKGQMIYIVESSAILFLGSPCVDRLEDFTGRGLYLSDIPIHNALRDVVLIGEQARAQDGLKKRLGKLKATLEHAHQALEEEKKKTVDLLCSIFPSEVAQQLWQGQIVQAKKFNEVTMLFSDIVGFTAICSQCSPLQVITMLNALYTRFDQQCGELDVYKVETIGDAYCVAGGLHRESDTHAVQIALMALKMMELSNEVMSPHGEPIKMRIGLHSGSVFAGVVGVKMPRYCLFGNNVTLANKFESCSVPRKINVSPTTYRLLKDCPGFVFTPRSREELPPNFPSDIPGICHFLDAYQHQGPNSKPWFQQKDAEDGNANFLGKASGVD
PROTOCOL: Effect on a recombinant guanylate cyclase reporter cell line
Protocol: B-1. Effect on a Recombinant Guanylate Cyclase Reporter Cell Line The cellular activity of the compounds according to the invention was determined using a recombinant guanylate cyclase reporter cell line, as described in F. Wunder et al., Anal. Biochem. 339, 104-112 (2005).
Structures can show the parent of a compound that is named as a salt.
Label 1 when EC50 is strictly below 10 nM; otherwise label -1.

COMPOUND	CLASS_LABEL
CC(C)CN1CCN(c2ccc(-c3ccc(Cl)cc3N3CCC[C@@H](n4ncc(C(=O)O)c4C(F)F)C3)cc2)CC1 [Example 3, hydrochloride]	1
O=C(O)c1cnn(C2CCCN(c3cc(Cl)ccc3-c3ccc(N4CCN(CC(F)(F)F)CC4)cc3)C2)c1C(F)F (single isomer, unassigned) [Example 6]	-1
O=C(O)c1cnn(C2CCCN(c3cc(Cl)ccc3-c3ccc(N4CCN(CC(F)(F)F)CC4)cc3)C2)c1C(F)(F)F (single isomer, unassigned)	1
O=C(O)c1cnn(C2CCCN(c3cc(Cl)ccc3-c3ccc(N4CCN(CC5CC5)CC4)cc3)C2)c1C(F)F (single isomer, unassigned) [Example 5, hydrochloride]	1
CC(C)CN1CCN(c2ccc(-c3ccc(Cl)cc3N3CCC[C@@H](n4ncc(C(=O)O)c4C(F)F)C3)cc2)CC1 (single isomer, unassigned) [Example 2]	1
O=C(O)c1cnn(C2CCCN(c3cc(Cl)ccc3-c3ccc(N4CCN(CC5CC5)CC4)cc3)C2)c1C(F)(F)F (single isomer, unassigned) [Example 10, hydrochloride]	-1
CC(C)CN1CCN(c2ccc(-c3ccc(Cl)cc3N3CCCC(n4ncc(C(=O)O)c4C(F)(F)F)C3)cc2)CC1 (single isomer, unassigned) [Example 9, hydrochloride]	-1
CC(C)CN1CCN(c2ccc(-c3ccc(Cl)cc3N3CCCC(n4ncc(C(=O)O)c4C(F)(F)F)C3)cc2)CC1 (single isomer, unassigned) [Example 8]	-1
CCCN1CCN(c2ccc(-c3ccc(Cl)cc3N3CCCC(n4ncc(C(=O)O)c4C(F)F)C3)cc2)CC1 (single isomer, unassigned) [Example 4, hydrochloride]	1
CC(C)CN1CCN(c2ccc(-c3ccc(Cl)cc3N3CCCC(n4ncc(C(=O)O)c4C(F)F)C3)cc2)CC1 (single isomer, unassigned) [Example 1, hydrochloride]	1
O=C(O)c1cnn(C2CCCN(c3cc(Cl)ccc3-c3ccc(N4CCN(CC(F)(F)F)CC4)cc3)C2)c1C(F)F (single isomer, unassigned) [Example 7]	-1
